Target: T1, cMetECDHis (human, UniProt P08581 25-932, limits assumed, biotinylated in the cross-block ELISA of Example 17)
T1 construct: Expressed in HEK-293F cells; also called soluble cMetECDHis; biotinylated cMetECDHis
Experiment: cross-block ELISA; competitor G11-HZ
readout.kind: residual binding, % of no competitor (%)
Note: unit % is implicit; provide only the numeric part.

Task: Could you tell me which residual binding, % of no competitor is on file for anti-c-Met HuMab 045 (IgG1) (antibody, V domains shown, also called TH1016-045; PC1016-045) VH: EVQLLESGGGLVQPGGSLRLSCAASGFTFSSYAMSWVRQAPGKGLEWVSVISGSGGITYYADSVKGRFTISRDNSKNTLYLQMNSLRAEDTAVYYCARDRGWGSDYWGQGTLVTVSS VL: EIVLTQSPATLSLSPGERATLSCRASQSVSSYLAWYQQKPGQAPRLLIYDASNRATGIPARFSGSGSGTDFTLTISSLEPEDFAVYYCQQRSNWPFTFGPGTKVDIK ?
Result: 99.3
